# testedSystem: CETP (Homo sapiens (Human))
# Sequence (P11597 18-493): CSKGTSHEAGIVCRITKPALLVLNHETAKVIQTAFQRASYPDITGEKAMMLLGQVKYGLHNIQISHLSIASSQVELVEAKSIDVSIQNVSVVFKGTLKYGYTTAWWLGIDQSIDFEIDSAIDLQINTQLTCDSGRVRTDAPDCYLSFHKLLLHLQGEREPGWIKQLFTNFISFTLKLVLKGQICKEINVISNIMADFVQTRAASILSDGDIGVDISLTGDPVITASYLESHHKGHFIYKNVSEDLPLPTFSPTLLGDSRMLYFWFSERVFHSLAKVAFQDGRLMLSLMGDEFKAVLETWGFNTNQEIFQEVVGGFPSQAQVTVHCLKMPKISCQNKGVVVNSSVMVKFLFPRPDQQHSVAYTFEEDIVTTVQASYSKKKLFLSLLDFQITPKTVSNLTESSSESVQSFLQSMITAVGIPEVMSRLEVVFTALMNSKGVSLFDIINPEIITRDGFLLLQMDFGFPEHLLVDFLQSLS
# experiment: Test for inhibition of cholesteryl ester transfer (in vitro)
# assaySetup: human plasma as CETP source, LDL from healthy persons as acceptor, rHDL-agarose donor, 37° C.
metricName: IC50 (nM)

a = COc1cc(C(F)(F)F)c(-c2ccc(C(=O)O)cc2)cc1C1=C(CN2C(=O)O[C@H](c3cc(C(F)(F)F)cc(C(F)(F)F)c3)[C@@H]2C)CC(C)(C)CC1 [Compound 612]
b = Cc1cc(C(=O)O)ccc1-c1cc(F)cc(C2=C(CN3C(=O)O[C@H](c4cc(C(F)(F)F)cc(C(F)(F)F)c4)[C@@H]3C)CC(C)(C)CC2)c1 [Compound 650]
Would you let me know which has the greater IC50 value, a or b ? Field: selected label. Fill in the label of the entry you choose. b
